System: MCF7 cells
Assay: Cell proliferation assay MCF7
Type: cell-based
Conditions: MCF7 human breast cancer cells; 120 hours; ATPlite 1 Step
assayReadout: EC50

Per the record, CCN(CC)CCCCNCc1cc(CNC(=O)C(=O)O)ccn1 has EC50 of 250 to 2500 nM

Per the record, CN(C)CCCNCc1cc(CN)ccn1 has EC50 of < 250 nM

Per the record, CC(C)C[C@H](NCc1cc(/C=N/CCO)ccn1)C(=O)N1CCCCC1 has EC50 of > 2500 nM

Per the record, CCN(CC)CCCCNCc1cc(CNC(=O)C(F)(F)F)ccn1 has EC50 of < 250 nM

Per the record, CN(C)C/C=C\CNCc1cc(C=O)ccn1 has EC50 of > 2500 nM

Others:
Per the record, CCN(CC)CCCCNCc1cc(C=NNc2ccc(C#N)cc2)ccn1 has EC50 of 250 to 2500 nM

Per the record, CN(C)CC1CCC(CNCc2cc(/C=N/C3CC3)ccn2)CC1 (stereo not drawn) has EC50 of < 250 nM

Per the record, CCN(CCN(C)C)C(=O)CNCc1cc(CNC(=O)C(F)(F)C(F)(F)C(F)(F)F)ccn1 has EC50 of 250 to 2500 nM

Per the record, CN(Cc1ccccc1F)C(=O)CNCc1cc(/C=N/CCO)ccn1 has EC50 of > 2500 nM

Per the record, CCN(CC1CCCN1C)C(=O)CNCc1cc(C=O)ccn1 (stereo not drawn) has EC50 of < 250 nM

Per the record, CCN(CCC#N)C(=O)CNCc1cc(/C=N/CCO)ccn1 has EC50 of > 2500 nM

Per the record, CN(C)CCCCNCc1cc(CN)ccn1 has EC50 of < 250 nM

Per the record, CCN(CCN(C)C)C(=O)CNCc1cc(CNC(=O)C(F)(F)CC)ccn1 has EC50 of > 2500 nM

Per the record, CCN(CCN(C)C)C(=O)CNCc1cc(/C=N/CC(CO)Cc2ccccc2)ccn1 (stereo not drawn) has EC50 of < 250 nM

Per the record, CC(C#N)NCc1ccnc(CNCCCN(C)C)c1 (stereo not drawn) has EC50 of < 250 nM

Per the record, CCN(CCN(C)C)C(=O)CNCc1cc(/C=N/CCO)ccn1 has EC50 of < 250 nM

Per the record, CCN(CC)CCCCNCc1cc(/C=N/CC(F)(F)C(F)(F)F)ccn1 has EC50 of < 250 nM

Values from patent US9650339B2
